Reference source for all entries: the supplement of paper PMC3334620

experimentalSystem: Vhr1 (UniProt P40522)
Sequence: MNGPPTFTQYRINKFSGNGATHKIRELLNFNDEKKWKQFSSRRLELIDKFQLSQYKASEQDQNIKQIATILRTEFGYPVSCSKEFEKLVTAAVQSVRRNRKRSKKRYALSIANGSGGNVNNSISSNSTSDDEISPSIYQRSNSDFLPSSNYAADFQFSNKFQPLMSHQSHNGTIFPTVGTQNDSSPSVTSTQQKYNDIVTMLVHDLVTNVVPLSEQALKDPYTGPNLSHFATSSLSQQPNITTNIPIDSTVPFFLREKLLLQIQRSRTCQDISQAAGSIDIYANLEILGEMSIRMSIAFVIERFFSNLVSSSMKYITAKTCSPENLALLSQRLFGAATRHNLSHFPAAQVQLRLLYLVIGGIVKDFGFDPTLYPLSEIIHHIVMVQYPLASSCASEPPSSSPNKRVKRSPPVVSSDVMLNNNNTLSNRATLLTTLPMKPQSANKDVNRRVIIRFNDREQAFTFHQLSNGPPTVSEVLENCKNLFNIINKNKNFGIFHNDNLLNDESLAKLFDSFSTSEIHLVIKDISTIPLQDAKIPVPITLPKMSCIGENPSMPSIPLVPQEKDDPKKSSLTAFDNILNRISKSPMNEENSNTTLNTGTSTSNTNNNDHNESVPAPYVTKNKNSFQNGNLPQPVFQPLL
assayProtocol: PBM E-score (8-mer binding enrichment) (E-score (-0.5 to 0.5)); higher = stronger / more preferred TF binding
condition: protein concentration: 200 nM; construct: GST-full length
Whole data set: some 33,000 sequences, median “E-score (-0.5 to 0.5)” near -0.012, cut for the highest 2% near 0.27. The list comes from a sample in which the highest values are over-represented; it also holds close analogues and randomly drawn sequences.
The label depends only on PBM E-score: rule met if it is at least 0.3, rule not met if it is smaller.

[[record]]
sequencerecord = "ACCACCCG"
experimentalsystem = "Vhr1 (UniProt P40522)"
classlabel = "rule not met"

[[record]]
sequencerecord = "GCCACCCC"
experimentalsystem = "Vhr1 (UniProt P40522)"
classlabel = "rule not met"

[[record]]
sequencerecord = "CCCACCCG"
experimentalsystem = "Vhr1 (UniProt P40522)"
classlabel = "rule met"

[[record]]
sequencerecord = "ACTGACCC"
experimentalsystem = "Vhr1 (UniProt P40522)"
classlabel = "rule not met"

[[record]]
sequencerecord = "GTTGACTA"
experimentalsystem = "Vhr1 (UniProt P40522)"
classlabel = "rule not met"

[[record]]
sequencerecord = "CCTGACGC"
experimentalsystem = "Vhr1 (UniProt P40522)"
classlabel = "rule not met"

[[record]]
sequencerecord = "CCGGACTA"
experimentalsystem = "Vhr1 (UniProt P40522)"
classlabel = "rule not met"

[[record]]
sequencerecord = "ACTGACTC"
experimentalsystem = "Vhr1 (UniProt P40522)"
classlabel = "rule met"

[[record]]
sequencerecord = "ACGGACTC"
experimentalsystem = "Vhr1 (UniProt P40522)"
classlabel = "rule not met"

[[record]]
sequencerecord = "ACTGACAC"
experimentalsystem = "Vhr1 (UniProt P40522)"
classlabel = "rule not met"


====

experimentalSystem: Vhr1 (UniProt P40522)
Sequence: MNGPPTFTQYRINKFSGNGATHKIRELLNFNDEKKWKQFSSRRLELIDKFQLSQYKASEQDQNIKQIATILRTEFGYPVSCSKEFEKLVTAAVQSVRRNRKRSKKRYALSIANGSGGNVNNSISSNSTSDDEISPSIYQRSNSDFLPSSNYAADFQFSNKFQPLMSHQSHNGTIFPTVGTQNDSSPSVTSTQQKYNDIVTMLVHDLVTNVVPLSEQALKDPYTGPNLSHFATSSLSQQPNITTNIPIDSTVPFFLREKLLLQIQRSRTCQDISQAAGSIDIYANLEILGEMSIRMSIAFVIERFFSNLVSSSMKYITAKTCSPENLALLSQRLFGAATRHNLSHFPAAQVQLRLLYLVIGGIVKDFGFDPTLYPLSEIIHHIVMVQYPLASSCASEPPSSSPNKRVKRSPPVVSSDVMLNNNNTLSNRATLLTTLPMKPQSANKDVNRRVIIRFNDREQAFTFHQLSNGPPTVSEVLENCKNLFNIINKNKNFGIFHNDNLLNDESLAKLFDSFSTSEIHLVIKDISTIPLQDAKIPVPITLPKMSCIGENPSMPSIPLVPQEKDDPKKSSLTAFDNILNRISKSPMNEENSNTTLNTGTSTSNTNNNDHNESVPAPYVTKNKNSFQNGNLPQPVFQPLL
assayProtocol: PBM E-score (8-mer binding enrichment) (E-score (-0.5 to 0.5)); higher = stronger / more preferred TF binding
condition: protein concentration: 200 nM; construct: GST-full length
Over roughly 33,000 sequences, “E-score (-0.5 to 0.5)” has its median near -0.012; the highest 2% begin near 0.27. What follows is part of a selection rich in the highest values, with near analogues and random picks from the rest.
propertyName: PBM E-score

[[record]]
sequencerecord = "ACGACTGC"
experimentalsystem = "Vhr1 (UniProt P40522)"
resultnumber = -0.0133

[[record]]
sequencerecord = "AGACACCG"
experimentalsystem = "Vhr1 (UniProt P40522)"
resultnumber = 0.21

[[record]]
sequencerecord = "AGGATGGC"
experimentalsystem = "Vhr1 (UniProt P40522)"
resultnumber = 0.124

[[record]]
sequencerecord = "CTTGTAAA"
experimentalsystem = "Vhr1 (UniProt P40522)"
resultnumber = -0.0609

[[record]]
sequencerecord = "GGTAGTCA"
experimentalsystem = "Vhr1 (UniProt P40522)"
resultnumber = 0.427

[[record]]
sequencerecord = "AAAGCGTA"
experimentalsystem = "Vhr1 (UniProt P40522)"
resultnumber = -0.183

[[record]]
sequencerecord = "ACTCACCT"
experimentalsystem = "Vhr1 (UniProt P40522)"
resultnumber = 0.244

[[record]]
sequencerecord = "CCACACCA"
experimentalsystem = "Vhr1 (UniProt P40522)"
resultnumber = 0.141

[[record]]
sequencerecord = "AGACTGTG"
experimentalsystem = "Vhr1 (UniProt P40522)"
resultnumber = -0.0209

[[record]]
sequencerecord = "GCACTTGA"
experimentalsystem = "Vhr1 (UniProt P40522)"
resultnumber = -0.145

[[record]]
sequencerecord = "AAGACCGG"
experimentalsystem = "Vhr1 (UniProt P40522)"
resultnumber = -0.166

[[record]]
sequencerecord = "AACCCGTT"
experimentalsystem = "Vhr1 (UniProt P40522)"
resultnumber = -0.0686

[[record]]
sequencerecord = "AGTCTGAC"
experimentalsystem = "Vhr1 (UniProt P40522)"
resultnumber = 0.148

[[record]]
sequencerecord = "AAGACTCG"
experimentalsystem = "Vhr1 (UniProt P40522)"
resultnumber = 0.0518

[[record]]
sequencerecord = "ACCCACAC"
experimentalsystem = "Vhr1 (UniProt P40522)"
resultnumber = 0.185

[[record]]
sequencerecord = "AAAGTACA"
experimentalsystem = "Vhr1 (UniProt P40522)"
resultnumber = 0.071

[[record]]
sequencerecord = "GCTCACCC"
experimentalsystem = "Vhr1 (UniProt P40522)"
resultnumber = 0.265

[[record]]
sequencerecord = "GTCATCGA"
experimentalsystem = "Vhr1 (UniProt P40522)"
resultnumber = 0.205

[[record]]
sequencerecord = "TACTCGGA"
experimentalsystem = "Vhr1 (UniProt P40522)"
resultnumber = 0.126

[[record]]
sequencerecord = "TCACACCA"
experimentalsystem = "Vhr1 (UniProt P40522)"
resultnumber = 0.17

[[record]]
sequencerecord = "GGTAGTAA"
experimentalsystem = "Vhr1 (UniProt P40522)"
resultnumber = -0.193

[[record]]
sequencerecord = "CTCACTGC"
experimentalsystem = "Vhr1 (UniProt P40522)"
resultnumber = -0.102

[[record]]
sequencerecord = "GTGACTGA"
experimentalsystem = "Vhr1 (UniProt P40522)"
resultnumber = 0.384

[[record]]
sequencerecord = "GGAGAAAA"
experimentalsystem = "Vhr1 (UniProt P40522)"
resultnumber = -0.292

[[record]]
sequencerecord = "GGGACTGA"
experimentalsystem = "Vhr1 (UniProt P40522)"
resultnumber = -0.174

[[record]]
sequencerecord = "GGTCACCA"
experimentalsystem = "Vhr1 (UniProt P40522)"
resultnumber = -0.102

[[record]]
sequencerecord = "AGTCACCC"
experimentalsystem = "Vhr1 (UniProt P40522)"
resultnumber = 0.446

[[record]]
sequencerecord = "GCGGGTCA"
experimentalsystem = "Vhr1 (UniProt P40522)"
resultnumber = 0.308

[[record]]
sequencerecord = "AGGGGTGA"
experimentalsystem = "Vhr1 (UniProt P40522)"
resultnumber = -0.0936

[[record]]
sequencerecord = "GCGGGTCC"
experimentalsystem = "Vhr1 (UniProt P40522)"
resultnumber = -0.00354

[[record]]
sequencerecord = "ACTCACCC"
experimentalsystem = "Vhr1 (UniProt P40522)"
resultnumber = 0.391

[[record]]
sequencerecord = "CTACCTCC"
experimentalsystem = "Vhr1 (UniProt P40522)"
resultnumber = 0.241

[[record]]
sequencerecord = "ACTCACCA"
experimentalsystem = "Vhr1 (UniProt P40522)"
resultnumber = 0.378

[[record]]
sequencerecord = "ACCTACGT"
experimentalsystem = "Vhr1 (UniProt P40522)"
resultnumber = -0.0787

[[record]]
sequencerecord = "CGTCACCA"
experimentalsystem = "Vhr1 (UniProt P40522)"
resultnumber = -0.036

[[record]]
sequencerecord = "AGAACTGA"
experimentalsystem = "Vhr1 (UniProt P40522)"
resultnumber = -0.183

[[record]]
sequencerecord = "CGTGAGAC"
experimentalsystem = "Vhr1 (UniProt P40522)"
resultnumber = 0.0393

[[record]]
sequencerecord = "AACTGCTG"
experimentalsystem = "Vhr1 (UniProt P40522)"
resultnumber = -0.0272

[[record]]
sequencerecord = "CCTCACCG"
experimentalsystem = "Vhr1 (UniProt P40522)"
resultnumber = 0.113

[[record]]
sequencerecord = "ATCACTGA"
experimentalsystem = "Vhr1 (UniProt P40522)"
resultnumber = 0.136

[[record]]
sequencerecord = "ACGGGTGA"
experimentalsystem = "Vhr1 (UniProt P40522)"
resultnumber = 0.117

[[record]]
sequencerecord = "AATTAATA"
experimentalsystem = "Vhr1 (UniProt P40522)"
resultnumber = 0.102

[[record]]
sequencerecord = "ATGACTGC"
experimentalsystem = "Vhr1 (UniProt P40522)"
resultnumber = 0.41

[[record]]
sequencerecord = "AGTCACCA"
experimentalsystem = "Vhr1 (UniProt P40522)"
resultnumber = 0.426

[[record]]
sequencerecord = "TCTCACCA"
experimentalsystem = "Vhr1 (UniProt P40522)"
resultnumber = 0.0878

[[record]]
sequencerecord = "GGGGGTGA"
experimentalsystem = "Vhr1 (UniProt P40522)"
resultnumber = 0.132

